System: CCRF-CEM
assay-protocol: NCI tumour cell line growth inhibition, 48 h
The source made the active and inactive calls. Rule as the data show it: active = GI50 up to about 1.1 µM and inactive = higher.
Labels: active, inactive

# molecule, label-class
measured = [
    ("O=C(NC(Cc1c[nH]c2ccccc12)C(=O)O)/C(=C/c1ccccc1O)NC(=O)c1ccccc1 (centres undefined)", "inactive"),
    ("COC(=O)C1=C(c2ccc3c(c2)OCO3)O[C@H](c2cc(OC)c(OC)c(OC)c2)[C@H]1COC(C)=O", "inactive"),
    ("CC1(C)CC(N(C(=O)/C=C/c2ccc([N+](=O)[O-])o2)C2CCCCC2)CC(C)(C)N1", "inactive"),
    ("Cc1nc(O)nc(O)c1/C=C/C(=O)O", "inactive"),
    ("O=S(=O)(CCn1c(Sc2ccccc2)c(Sc2ccccc2)c2ccccc21)c1ccccc1", "inactive"),
    ("CC(=O)Nc1ccc(NC(=O)c2c(Cl)c(Cl)c(Cl)c(Cl)c2-c2nc3ccccc3[nH]2)cc1", "inactive"),
    ("C/C(CCn1[nH]c(=O)ccc1=O)=N\\Nc1ccc([N+](=O)[O-])cc1[N+](=O)[O-]", "inactive"),
    ("CN(/N=C/C=N/N(C)C1=NCCCN1)C1=NCCCN1", "inactive"),
    ("O=C(CBr)N1CCC2(CC1)SSC1(CCN(C(=O)CBr)CC1)S2", "active"),
]
